target: GST-tagged-Wee1 kinase (Homo sapiens, UniProt P30291); experiment: Wee1 time-resolved fluorescence equilibrium binding assay (displacement of Oregon Green-labeled ATP-competitive kinase probe)
Sequence (P30291 whole entry): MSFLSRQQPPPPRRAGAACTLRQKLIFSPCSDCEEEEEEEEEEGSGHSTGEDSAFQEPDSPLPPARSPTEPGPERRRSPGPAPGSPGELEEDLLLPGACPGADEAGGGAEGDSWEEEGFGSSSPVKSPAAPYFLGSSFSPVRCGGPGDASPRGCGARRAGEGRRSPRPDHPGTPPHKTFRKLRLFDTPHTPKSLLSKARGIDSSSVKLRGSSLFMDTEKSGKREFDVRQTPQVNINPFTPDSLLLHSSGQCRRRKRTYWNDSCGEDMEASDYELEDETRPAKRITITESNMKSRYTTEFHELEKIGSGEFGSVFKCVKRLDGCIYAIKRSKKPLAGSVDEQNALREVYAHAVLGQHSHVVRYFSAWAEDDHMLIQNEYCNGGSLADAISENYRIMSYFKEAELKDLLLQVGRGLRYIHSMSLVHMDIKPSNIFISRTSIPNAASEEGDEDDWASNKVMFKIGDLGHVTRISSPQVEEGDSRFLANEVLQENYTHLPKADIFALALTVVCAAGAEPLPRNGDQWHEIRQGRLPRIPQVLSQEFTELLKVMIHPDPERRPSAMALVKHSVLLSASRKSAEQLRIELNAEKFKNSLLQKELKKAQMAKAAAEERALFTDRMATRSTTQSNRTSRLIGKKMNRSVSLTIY
Rule: measured Ki below 0.6 nM gets Criterion met; anything equal to or greater than 0.6 nM gets Criterion not met.

O=c1c2cnc(Nc3ccc(N4CCNCC4)cc3)nc2c(-c2ccccn2)nn1C1CCCCC1 = Criterion not met

Record `CC(=O)N1CCc2cc(Nc3ncc4c(=O)n(-c5c(Cl)cccc5Cl)nc(C)c4n3)ccc2C1` : is its Ki strictly below 0.6 nM?
Criterion met

Next entry: `C=CCn1nc(-c2ccccc2)c2nc(Nc3ccc(CN(C)C)cc3)ncc2c1=O`
Criterion not met

Next entry: `C=CCn1nc(-c2ccccc2)c2nc(Nc3ccc4c(c3)CN(C)CC4)ncc2c1=O`
Criterion not met

Next entry: `COCc1nn(-c2c(Cl)cccc2Cl)c(=O)c2cnc(Nc3ccc(N4CCN(C)CC4)cc3)nc12`
Criterion not met

Next entry: `Cc1ccccc1-n1nc(-c2ccccc2)c2nc(Nc3ccc(N4CCN(C)CC4)cc3)ncc2c1=O`
Criterion not met

Next entry: `Cn1cnc(-c2nn(-c3c(Cl)cccc3Cl)c(=O)c3cnc(Nc4ccc5c(c4)CNCC54CC4)nc23)c1`
Criterion not met

Next entry: `CN1CCN(c2ccc(Nc3ncc4c(=O)n(-c5c(Cl)cccc5Cl)nc(-c5ccsc5)c4n3)cc2)CC1`
Criterion met

Next entry: `Cc1cc(Nc2ncc3c(=O)n(-c4ccccc4C)nc(-c4ccccc4)c3n2)ccc1N1CCN(C(C)C)CC1`
Criterion not met

Next entry: `CN1CCN(c2ccc(Nc3ncc4c(=O)n(-c5c(Cl)cccc5Cl)nc(-c5cccc(-c6c[nH]cn6)c5)c4n3)cc2)CC1`
Criterion met

Next entry: `O=c1c2cnc(Nc3ccc(N4CCNCC4)cc3)nc2c(-c2ccccn2)nn1-c1c(Cl)cccc1Cl`
Criterion met

Next entry: `Cc1cccc(Cl)c1-n1nc(C)c2nc(Nc3ccc(OC4CCN(C)CC4)cc3)ncc2c1=O`
Criterion met

Next entry: `CN1CCN(c2ccc(Nc3ncc4c(=O)n(-c5c(Cl)cccc5Cl)nc(C5CCNCC5)c4n3)cc2)CC1`
Criterion not met

Next entry: `CN1CCN(c2ccc(Nc3ncc4c(=O)n(-c5ccccc5Cl)nc(C5CCCC5)c4n3)cc2)CC1`
Criterion not met

---

molecular target: UniProt P30291; test: Wee1 time-resolved fluorescence equilibrium binding assay (displacement of Oregon Green-labeled ATP-competitive kinase probe)
Would you mind telling me the reported pKi of each entry?
Numbers only, as −log10 of the molar value.

# count of solved cases: 5
CN1Cc2cc(Nc3ncc4c(=O)n(-c5c(Cl)cccc5Cl)nc(C(F)F)c4n3)ccc2C2(CC2)C1 [Example 411] = 9.00
CCc1nn(-c2c(Cl)cccc2Cl)c(=O)c2cnc(Nc3ccc(N4CCN(C(C)=O)CC4)cc3)nc12 [Example 414] = 9.12
CN1CCN(c2ccc(Nc3ncc4c(=O)n(-c5cnccc5O)nc(-c5ccccn5)c4n3)cc2)CC1 [Example 310] = 8.44
Cc1cc(Nc2ncc3c(=O)n(-c4c(Cl)cccc4Cl)nc(-c4ccn(C)n4)c3n2)ccc1N1CCCN(C)CC1 [Example 152] = 10.40
COCCn1ccc(-c2nn(-c3c(Cl)cccc3Cl)c(=O)c3cnc(Nc4ccc(N5CCN(C)CC5)cc4)nc23)n1 [Example 252] = 9.40

Provide each entry's pKi from the list below.
1. COc1cc(Nc2ncc3c(=O)n(-c4ccccc4C)nc(-c4ccccc4)c3n2)ccc1N1CCN(C(C)C)CC1 [Example 113]
2. Cn1cnc(-c2nn(-c3ccncc3Cl)c(=O)c3cnc(Nc4ccc5c(c4)CNCC54CC4)nc23)c1 [Example 373]

[9.40, 7.16]

Cited source: patent US8796289B2
